Assay: Microsomal stability in CD-1 mouse liver microsomes assessed as half life measured after 40 mins in presence of NADPH by LC-MS/MS analysis
Assay type: ADME, Microsome

smiles_structure: O=[N+]([O-])c1c(CS(=O)(=O)c2ccccc2)nc2c(C#CCCO)cc(Cl)cn12
half-life: 16 min

----------
System: Trypanosoma brucei brucei
Assay: […] activity against Trypanosoma brucei brucei AnTat 1.9 measured after 74 hrs by Alamar blue assay
Type: functional, organism-based
Details: AnTat 1.9, 74 h
pEC50: −log10 of the molar value.
Measured pEC50 values are reported for all entries that follow.
test_readout: pEC50

compound: CC(O)C#Cc1cc(Cl)cn2c([N+](=O)[O-])c(CS(=O)(=O)c3ccccc3)nc12 (stereo unspecified)
test_readout: pEC50
test_result: 7.40
--
compound: O=[N+]([O-])c1c(CS(=O)(=O)c2ccccc2)nc2c(C#CCOc3ccccc3)cc(Cl)cn12
test_readout: pEC50
test_result: 6.80
--
compound: CC1CS(=O)(=O)CCN1/N=C/c1ccc([N+](=O)[O-])o1 (stereo unspecified)
test_readout: pEC50
test_result: 5.59
--
compound: O=[N+]([O-])c1c(CS(=O)(=O)c2ccccc2)nc2c(Br)cc(Br)cn12
test_readout: pEC50
test_result: 5.54
--
compound: O=[N+]([O-])c1c(CS(=O)(=O)c2ccccc2)nc2c(Sc3ccc(Cl)cc3)cc(Cl)cn12
test_readout: pEC50
test_result: 5.89
--
compound: O=[N+]([O-])c1c(CS(=O)(=O)c2ccccc2)nc2c(C#CCO)cc(Cl)cn12
test_readout: pEC50
test_result: 6.92
--
compound: Nc1c(CS(=O)(=O)c2ccccc2)nc2c(C#CCCO)cc(Cl)cn12
test_readout: pEC50
test_result: 5.17
--
compound: CCC(O)CC#Cc1cc(Cl)cn2c([N+](=O)[O-])c(CS(=O)(=O)c3ccccc3)nc12 (stereo unspecified)
test_readout: pEC50
test_result: 7.40
--
compound: O=[N+]([O-])c1c(CS(=O)(=O)c2ccccc2)nc2c(C#CCCO)cc(Cl)cn12
test_readout: pEC50
test_result: 7.15
--
compound: O=[N+]([O-])c1c(CS(=O)(=O)c2ccccc2)nc2c(C#Cc3ccc(CO)cc3)cc(Cl)cn12
test_readout: pEC50
test_result: 6.80
--
compound: O=[N+]([O-])c1c(CS(=O)(=O)c2ccccc2)nc2c(-c3ccncc3)cc(Cl)cn12
test_readout: pEC50
test_result: 6.60
--
compound: O=[N+]([O-])c1c(CS(=O)(=O)c2ccccc2)nc2c(C#CC3(O)CCCC3)cc(Cl)cn12
test_readout: pEC50
test_result: 7.00
--
compound: O=[N+]([O-])c1c(CS(=O)(=O)c2ccccc2)nc2c(C#CC3(O)CCCCC3)cc(Cl)cn12
test_readout: pEC50
test_result: 7.00
--
compound: CC(O)(C#Cc1cc(Cl)cn2c([N+](=O)[O-])c(CS(=O)(=O)c3ccccc3)nc12)c1ccccc1 (stereo unspecified)
test_readout: pEC50
test_result: 6.89
--
compound: CC(C)(O)C#Cc1cc(Cl)cn2c([N+](=O)[O-])c(CS(=O)(=O)c3ccccc3)nc12
test_readout: pEC50
test_result: 6.92
--
compound: CSc1ccc(OCc2ncc([N+](=O)[O-])n2C)cc1
test_readout: pEC50
test_result: 6.22

----------
# selectivity ratio listing for each entry below
Test: Selectivity index, ratio of CC50 for cytotoxicity against human HepG2 cells to EC50 for antileishmanial activity against Leishmania donovani MHOM/IN/00/DEVI promastigotes
Format: toxicity, cell-based
Details: read-out: Selectivity Index

compound: CC(C)(O)C#Cc1cc(Cl)cn2c([N+](=O)[O-])c(CS(=O)(=O)c3ccccc3)nc12
result_qualifier: >
selectivity ratio: 20.8
//
compound: O=[N+]([O-])c1c(CS(=O)(=O)c2ccccc2)nc2c(C#CCCO)cc(Cl)cn12
result_qualifier: >
selectivity ratio: 16.9
//
compound: CC(O)(C#Cc1cc(Cl)cn2c([N+](=O)[O-])c(CS(=O)(=O)c3ccccc3)nc12)c1ccccc1 (stereo not given)
result_qualifier: =
selectivity ratio: 18.8
//
compound: O=[N+]([O-])c1c(CS(=O)(=O)c2ccccc2)nc2c(C#CCOc3ccccc3)cc(Cl)cn12
result_qualifier: =
selectivity ratio: 6.5
//
compound: O=[N+]([O-])c1c(CS(=O)(=O)c2ccccc2)nc2c(C#CCO)cc(Cl)cn12
result_qualifier: =
selectivity ratio: 2.6
//
compound: CCC(O)CC#Cc1cc(Cl)cn2c([N+](=O)[O-])c(CS(=O)(=O)c3ccccc3)nc12 (stereo not given)
result_qualifier: >
selectivity ratio: 39.1
//
compound: O=[N+]([O-])c1c(CS(=O)(=O)c2ccccc2)nc2c(C#CC3(O)CCCCC3)cc(Cl)cn12
result_qualifier: >
selectivity ratio: 25
//
compound: O=[N+]([O-])c1c(CS(=O)(=O)c2ccccc2)nc2c(C#Cc3ccc(CO)cc3)cc(Cl)cn12
result_qualifier: >
selectivity ratio: 9.8
//
compound: O=[N+]([O-])c1c(CS(=O)(=O)c2ccccc2)nc2c(C#CC3(O)CCCC3)cc(Cl)cn12
result_qualifier: >
selectivity ratio: 18.4
//
compound: CC(O)C#Cc1cc(Cl)cn2c([N+](=O)[O-])c(CS(=O)(=O)c3ccccc3)nc12 (stereo not given)
result_qualifier: =
selectivity ratio: 9.4

----------
Assay: Effective permeability of the compound at pH 7.4 incubated for 4 hrs by PAMPA-BBB assay
Format: ADME
Details: read-out: permeability
test_readout: Papp at 4 h (×10⁻⁶ cm/s)

smiles_structure: O=[N+]([O-])c1c(CS(=O)(=O)c2ccccc2)nc2c(C#CCCO)cc(Cl)cn12
test_readout: Papp at 4 h
test_result: 34.6

----------
Target: Albumin (Homo sapiens, UniProt P02768)
Sequence (P02768 whole entry): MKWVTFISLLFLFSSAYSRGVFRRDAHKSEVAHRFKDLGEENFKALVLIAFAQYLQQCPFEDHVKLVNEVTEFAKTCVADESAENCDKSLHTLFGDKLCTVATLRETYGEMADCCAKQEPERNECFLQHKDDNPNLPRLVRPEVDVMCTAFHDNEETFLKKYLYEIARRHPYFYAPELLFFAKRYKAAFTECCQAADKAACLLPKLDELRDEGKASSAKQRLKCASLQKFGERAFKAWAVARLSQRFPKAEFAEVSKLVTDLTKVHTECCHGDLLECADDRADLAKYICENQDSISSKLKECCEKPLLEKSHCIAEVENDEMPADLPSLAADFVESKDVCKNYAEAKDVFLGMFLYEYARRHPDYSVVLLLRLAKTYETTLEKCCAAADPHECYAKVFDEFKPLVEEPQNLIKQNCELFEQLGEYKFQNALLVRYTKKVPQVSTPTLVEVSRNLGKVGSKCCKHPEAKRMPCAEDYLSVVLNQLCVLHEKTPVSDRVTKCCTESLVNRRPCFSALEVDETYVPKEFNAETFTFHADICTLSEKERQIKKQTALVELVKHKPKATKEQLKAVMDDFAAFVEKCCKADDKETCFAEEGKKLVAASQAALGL
Experiment: Protein binding to human albumin by LC-MS analysis
Format: ADME
Conditions: read-out: PB (converted)

smiles_structure: O=[N+]([O-])c1c(CS(=O)(=O)c2ccccc2)nc2c(C#CCCO)cc(Cl)cn12
fraction unbound: 0.015

----------
Assay: Cytotoxicity against human HepG2 cells assessed as reduction in cell viability after 72 hrs by MTT assay
Assay type: cell-based

molecule: CCC(O)CC#Cc1cc(Cl)cn2c([N+](=O)[O-])c(CS(=O)(=O)c3ccccc3)nc12 (centres undefined)
CC50 at 72 h: > 62.5 µM
--
molecule: CC1CS(=O)(=O)CCN1/N=C/c1ccc([N+](=O)[O-])o1 (centres undefined)
CC50 at 72 h: 45.2 µM
--
molecule: O=[N+]([O-])c1c(CS(=O)(=O)c2ccccc2)nc2c(C#Cc3ccccc3F)cc(Cl)cn12
CC50 at 72 h: > 3.9 µM
--
molecule: O=[N+]([O-])c1c(CS(=O)(=O)c2ccccc2)nc2c(C#Cc3cccnc3)cc(Cl)cn12
CC50 at 72 h: > 3.9 µM
--
molecule: CC(C)(O)C#Cc1cc(Cl)cn2c([N+](=O)[O-])c(CS(=O)(=O)c3ccccc3)nc12
CC50 at 72 h: > 62.5 µM
--
molecule: COc1ccc(C#Cc2cc(Cl)cn3c([N+](=O)[O-])c(CS(=O)(=O)c4ccccc4)nc23)cc1
CC50 at 72 h: > 3.9 µM
--
molecule: COc1ccccc1C#Cc1cc(Cl)cn2c([N+](=O)[O-])c(CS(=O)(=O)c3ccccc3)nc12
CC50 at 72 h: > 3.9 µM
--
molecule: O=[N+]([O-])c1c(CS(=O)(=O)c2ccccc2)nc2c(C#CCCO)cc(Cl)cn12
CC50 at 72 h: > 125 µM
--
molecule: NCCCC(N)(C(=O)O)C(F)F (centres undefined)
CC50 at 72 h: > 100 µM

----------
Test system: Leishmania donovani
Test: Antileishmanial activity against Leishmania donovani BOB (MHOM/SD/62/1S-CL2D) promastigotes overexpressing NTR1 incubated for 72 hrs by resazurin dye based assay
Assay type: functional, organism-based
pEC50: −log10 of the molar value.
test_readout: pEC50

molecule: CCC(O)CC#Cc1cc(Cl)cn2c([N+](=O)[O-])c(CS(=O)(=O)c3ccccc3)nc12 (configuration not stated)
test_result: 6.40
--
molecule: O=[N+]([O-])c1c(CS(=O)(=O)c2ccccc2)nc2c(C#CCCO)cc(Cl)cn12
test_result: 6.30

----------
The following compounds are shown together with reported CC50 at 72 h values.
Assay: Cytotoxicity against human HepG2 cells assessed as reduction in cell viability after 72 hrs by MTT assay
Format: cell-based

smiles_structure: O=[N+]([O-])c1c(CS(=O)(=O)c2ccccc2)nc2c(Br)cc(Br)cn12
CC50 at 72 h: > 31 µM

smiles_structure: COc1cccc(C#Cc2cc(Cl)cn3c([N+](=O)[O-])c(CS(=O)(=O)c4ccccc4)nc23)c1
CC50 at 72 h: > 3.9 µM

smiles_structure: O=[N+]([O-])c1c(CS(=O)(=O)c2ccccc2)nc2c(C#Cc3ccccc3)cc(Cl)cn12
CC50 at 72 h: > 3.9 µM

smiles_structure: Nc1c(CS(=O)(=O)c2ccccc2)nc2c(C#CCCO)cc(Cl)cn12
CC50 at 72 h: > 62.5 µM

smiles_structure: O=[N+]([O-])c1c(CS(=O)(=O)c2ccccc2)nc2c(C#Cc3ccc(CO)cc3)cc(Cl)cn12
CC50 at 72 h: > 15.6 µM

smiles_structure: Nc1ccc(C#Cc2cc(Cl)cn3c([N+](=O)[O-])c(CS(=O)(=O)c4ccccc4)nc23)cc1
CC50 at 72 h: > 3.9 µM

smiles_structure: O=[N+]([O-])c1c(CS(=O)(=O)c2ccccc2)nc2c(C#CC3(O)CCCC3)cc(Cl)cn12
CC50 at 72 h: > 31.3 µM

smiles_structure: O=[N+]([O-])c1c(CS(=O)(=O)c2ccccc2)nc2c(C#CCOc3ccccc3)cc(Cl)cn12
CC50 at 72 h: 8.4 µM

smiles_structure: O=[N+]([O-])c1c(CS(=O)(=O)c2ccccc2)nc2c(C#CC3(O)CCCCC3)cc(Cl)cn12
CC50 at 72 h: > 25 µM

Where do these numbers come from? They come from ChEMBL document CHEMBL4765374.
